test system: Plasmodium falciparum 3D7 strain; test: P. falciparum 3D7 asexual blood stage assay (SYBR green readout); format: cell-based; details: P. falciparum 3D7 in human erythrocytes, 72 h incubation, SYBR green fluorescence; read-out: IC50
pIC50: −log10 of the molar value. Where a name gives a salt, the structure may show the parent alone.

[
  {
    "Compound": "COc1ncccc1C(=O)Nc1cccc([C@]2(C)CC(=O)N([C@@H]3CCO[C@H](C)C3)C(=N)N2)c1Cl (relative stereo) [Example 30, trifluoroacetic acid salt]",
    "pIC50": 7.82
  }
]
